Record form. Attribute: IC50. Fill in for each entry.
Target: BTK (Homo sapiens)
Sequence (Q06187 whole entry): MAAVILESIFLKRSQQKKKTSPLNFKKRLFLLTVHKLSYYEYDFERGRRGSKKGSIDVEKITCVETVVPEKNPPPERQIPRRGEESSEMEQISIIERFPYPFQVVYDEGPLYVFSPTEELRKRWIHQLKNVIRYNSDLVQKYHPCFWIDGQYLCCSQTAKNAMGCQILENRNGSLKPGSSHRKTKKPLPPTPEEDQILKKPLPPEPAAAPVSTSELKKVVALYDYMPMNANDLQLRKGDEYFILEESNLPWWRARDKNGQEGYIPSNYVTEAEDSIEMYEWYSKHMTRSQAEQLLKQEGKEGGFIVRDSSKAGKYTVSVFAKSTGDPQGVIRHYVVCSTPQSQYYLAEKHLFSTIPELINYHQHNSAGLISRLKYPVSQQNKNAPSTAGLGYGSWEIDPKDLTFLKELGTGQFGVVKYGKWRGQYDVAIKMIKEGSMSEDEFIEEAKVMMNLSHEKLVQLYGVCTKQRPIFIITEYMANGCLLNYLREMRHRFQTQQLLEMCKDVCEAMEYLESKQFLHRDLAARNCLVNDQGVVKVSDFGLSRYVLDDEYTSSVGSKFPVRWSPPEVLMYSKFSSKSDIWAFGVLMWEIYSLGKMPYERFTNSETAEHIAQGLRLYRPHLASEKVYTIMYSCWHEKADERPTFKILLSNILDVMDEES

**Query** Value wanted: IC50 (BTK (Homo sapiens)) of entry C=CC(=O)Nc1cccc(Oc2c(Cl)cnc3[nH]c(-c4ccc(N5CCC(O)CC5)cc4)nc23)c1 [Example 2]
**Result** 50 to 100 nM

**Query** Now this one: C=CC(=O)Nc1cccc(Oc2c(Cl)cnc3[nH]c(-c4ccc(N5CCN(C)CC5)cc4)nc23)c1 [Example 1]
**Result** ≤ 50 nM

**Query** Now this one: C=CC(=O)Nc1cccc(Oc2c(Cl)cnc3[nH]c(-c4ccc(C(=O)N5CCN(C)CC5)cc4)nc23)c1 [Example 3]
**Result** ≤ 50 nM

**Query** Now this one: C=CC(=O)Nc1cccc(Oc2ccnc3[nH]c(-c4ccc(N5CCN(C)CC5)cc4)nc23)c1 [Example 20]
**Result** 100 to 1000 nM

**Query** Now this one: C=CC(=O)Nc1cccc(Oc2c(Cl)cnc3[nH]c(-c4ccc(OC)cc4)nc23)c1 [Example 18]
**Result** 100 to 1000 nM

**Query** Now this one: C=CC(=O)Nc1cccc(Oc2c(Cl)cnc3[nH]c(-c4ccc(CN(CC)CC)cc4)nc23)c1 [Example 13]
**Result** ≤ 50 nM

**Query** Now this one: C=CC(=O)Nc1cccc(Oc2c(Cl)cnc3[nH]c(-c4ccc([S+](C)[O-])cc4)nc23)c1 (stereo not shown) [Example 7]
**Result** ≤ 50 nM

###

Target: JAK3 (Homo sapiens, UniProt P52333)
Sequence (P52333 781-1124 limits assumed): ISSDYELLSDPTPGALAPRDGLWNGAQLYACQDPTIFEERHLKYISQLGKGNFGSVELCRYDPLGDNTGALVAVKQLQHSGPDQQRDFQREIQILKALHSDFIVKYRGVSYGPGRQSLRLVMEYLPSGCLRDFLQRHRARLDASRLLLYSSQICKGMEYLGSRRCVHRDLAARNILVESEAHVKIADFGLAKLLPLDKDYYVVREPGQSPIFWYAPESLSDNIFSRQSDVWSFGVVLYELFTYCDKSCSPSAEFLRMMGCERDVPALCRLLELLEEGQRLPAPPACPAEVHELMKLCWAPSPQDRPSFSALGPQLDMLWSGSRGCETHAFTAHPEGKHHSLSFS
Record form. Attribute: IC50. Fill in for each entry.

**Query** Value wanted: IC50 (JAK3 (Homo sapiens, UniProt P52333)) of entry C=CC(=O)Nc1cccc(Oc2c(Cl)cnc3[nH]c(-c4ccc(CN(CC)CC)cc4)nc23)c1
**Result** ≤ 50 nM

**Query** Now this one: C=CC(=O)Nc1cccc(Oc2c(Cl)cnc3[nH]c(-c4ccc(CN(C)CC)cc4)nc23)c1
**Result** ≤ 50 nM

**Query** Now this one: C=CC(=O)Nc1cccc(Oc2c(Cl)cnc3[nH]c(-c4ccc(CN(C)C)cc4)nc23)c1
**Result** ≤ 50 nM

**Query** Now this one: C=CC(=O)Nc1cccc(Oc2c(Cl)cnc3[nH]c(-c4ccc(NC5CCN(C)CC5)cc4)nc23)c1
**Result** ≤ 50 nM

**Query** Now this one: C=CC(=O)Nc1cccc(Oc2c(Cl)cnc3[nH]c(-c4ccc(N5CCC(O)CC5)cc4)nc23)c1
**Result** 100 to 1000 nM

**Query** Now this one: C=CC(=O)Nc1cccc(Oc2c(Cl)cnc3[nH]c(-c4ccc(N5CCN(C)CC5)cc4)nc23)c1
**Result** 50 to 100 nM

**Query** Now this one: C=CC(=O)Nc1cccc(Oc2c(Cl)cnc3[nH]c(-c4ccc(C(=O)N(C)C)cc4)nc23)c1
**Result** 50 to 100 nM

**Query** Now this one: C=CC(=O)Nc1cccc(Oc2c(Cl)cnc3[nH]c(-c4ccc(C(=O)N5CCN(C)CC5)cc4)nc23)c1
**Result** 100 to 1000 nM

**Query** Now this one: C=CC(=O)Nc1cccc(Oc2c(Cl)cnc3[nH]c(-c4ccc(CN5CCCC5)cc4)nc23)c1
**Result** ≤ 50 nM

**Query** Now this one: C=CC(=O)Nc1cccc(Oc2ccnc3[nH]c(-c4ccc(N5CCN(C)CC5)cc4)nc23)c1
**Result** 100 to 1000 nM

Source of measurements: patent US20150299185A1
